The reported numbers originate from ChEMBL document CHEMBL1201861.

# IC50 listing for each entry below
- System: COLO-320-HSR;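 further: growth inhibition of COLO-320-HSR cells, determined with a cell viability assay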
- assayName: cells
- Format: functional, cell-based
- experimentalSetup: Homo sapiens
- Description: SANGER: Inhibition of human COLO-320-HSR cell growth in a cell viability assay.

# compound, IC50
records = [
    ("CCNc1cc(N[C@H]2CC[C@@H](O)CC2)nc(Nc2ccc3c(ccn3Cc3ccccc3)c2)n1", "> 5.12 µM"),
    ("Cc1n[nH]c2ccc(-c3cncc(OC[C@@H](N)Cc4c[nH]c5ccccc45)c3)cc12 [A-443654]", "0.937 µM"),
    ("COc1cc(Nc2c(C#N)cnc3cc(OCCCN4CCN(C)CC4)c(OC)cc23)c(Cl)cc1Cl [BOSUTINIB]", "> 2 µM"),
    ("Cc1nc(Nc2ncc(C(=O)Nc3c(C)cccc3Cl)s2)cc(N2CCN(CCO)CC2)n1 [DASATINIB]", "> 1.28 µM"),
    ("Cn1c(=O)n(-c2ccc(C(C)(C)C#N)cc2)c2c3cc(-c4cnc5ccccc5c4)ccc3ncc21 [DACTOLISIB]", "0.403 µM"),
    ("O=c1[nH]c2ccccc2n1C1CCN(Cc2ccc(-c3nc4cc5[nH]cnc5cc4nc3-c3ccccc3)cc2)CC1", "> 2.56 µM"),
    ("Cn1cc(/C=C2\\C(=O)Nc3cccnc32)c2ccccc21", "> 2 µM"),
    ("CC[C@@]1(O)C(=O)OCc2c1cc1n(c2=O)Cc2cc3ccccc3nc2-1 [CAMPTOTHECIN]", "0.0621 µM"),
    ("C/C(O)=C(\\C#N)C(=O)Nc1cc(Br)ccc1Br", "> 16 µM"),
    ("COc1cc(C)c(Sc2cnc(NC(=O)c3ccc(CNC(C)C(C)(C)C)cc3)s2)cc1C(=O)N1CCN(C(C)=O)CC1 (stereo unspecified)", "> 10.2 µM"),
    ("CC(=O)c1c(C)c2cnc(Nc3ccc(N4CCNCC4)cn3)nc2n(C2CCCC2)c1=O [PALBOCICLIB]", "> 4 µM"),
]
